# Tested on: SR
# Protocol: NCI tumour cell line growth inhibition, 48 h
Active and inactive are the calls of the source. Cut-off read from the data, not from the text of the source: active = GI50 up to about 1.1 µM and inactive = higher.
Allowed answers: true (1) (active), false (0) (inactive)

input: Test call, this molecule: CC(C)=Nn1cnc2c1=NC(C)(C)NC=2C(N)=O
output: false (0)

input: Test call, this molecule: O=C1CC[C@@H](S(=O)(=O)c2ccccc2)[C@H](/C=C/c2ccccc2)O1
output: false (0)

input: Test call, this molecule: CC(=O)c1c(=O)n(-c2ccc(C)cc2)c(O)c2c(N)n[nH]c12
output: false (0)

input: Test call, this molecule: N=C1OC(c2c[nH]c3ccc(OCc4ccccc4)cc23)C(O)=C1O (stereo not given)
output: false (0)

input: Test call, this molecule: CN(C)CCS/C(=N\c1ccccc1)N1C=COC=C1
output: false (0)

input: Test call, this molecule: NS(=O)(=O)c1ccc(/N=N/c2ccc(O)cc2)cc1
output: false (0)

input: Test call, this molecule: CSc1ccc(NC(=S)NN(C)C)cc1
output: false (0)

input: Test call, this molecule: O=c1cc(-c2ccccc2)oc2c1ccc1nc3ccccc3c(O)c12
output: false (0)

input: Test call, this molecule: COC(=O)CCCc1ccc2c(c1)CCC2
output: false (0)

input: Test call, this molecule: COC(=O)C(=O)C(C(=O)C(=O)Nc1cc(Cl)c(Cl)cc1Cl)c1nc2ccc([N+](=O)[O-])cc2nc1O (stereo not given)
output: false (0)

input: Test call, this molecule: O=c1oc2ccc(Cl)cc2c2ccccc12
output: false (0)

input: Test call, this molecule: NNC(=S)N/N=C/C(=C/Nc1ccccc1)[N+](=O)[O-]
output: true (1)

input: Test call, this molecule: Cc1cc([N+](=O)[O-])ccc1Sc1c2ccccc2nc2ccccc12
output: false (0)

input: Test call, this molecule: CC1=CC23C(COC(=O)C24CO4)C(C(=O)O)=CC3C1C (stereo not given)
output: false (0)

input: Test call, this molecule: CN(NC(=O)c1cccs1)C1=NCCCCN1
output: false (0)

input: Test call, this molecule: O=C1NCCCNCCCNCCCNC(=O)c2cccc1n2
output: false (0)

input: Test call, this molecule: Cc1ccc(S(=O)(=O)OI(O)CC(F)(F)F)cc1
output: false (0)

input: Test call, this molecule: CC(C)NC(=O)OCc1c(COC(=O)NC(C)C)n(C)c2c1ccc1ccsc12
output: false (0)

input: Test call, this molecule: S=c1[nH]c2ccc(Br)cc2c(=S)s1
output: false (0)

input: Test call, this molecule: COC1=C(C(=O)OC(C)(C)C)C23CCCCC2(C(C(=O)OC(C)(C)C)=C(OC)C3C(=O)OC(C)(C)C)C1C(=O)OC(C)(C)C (stereo not given)
output: false (0)

input: Test call, this molecule: CC(C)NC(=O)OCc1c(COC(=O)NC(C)C)c(-c2ccc[n+](COC(=O)CC(C)(C)C)c2)n2c1CCC2
output: false (0)

input: Test call, this molecule: COc1cc([C@@H]2c3cc4c(cc3[C@@H](Nc3ccc([N+](=O)[O-])cc3C(=O)c3ccccc3)[C@H]3COC(=O)[C@H]23)OCO4)cc(OC)c1OC
output: true (1)

input: Test call, this molecule: Cc1cn(C2CC(OP(=O)(O)OCC3OC(n4c[n+]([BH2-]C#N)c5c(=O)[nH]c(N)nc54)CC3O)C(CO)O2)c(=O)[nH]c1=O (stereo not given)
output: false (0)

input: Test call, this molecule: COc1cc2c(c(OC)c1)C(=O)C(=O)C(CC1(C)OCCCO1)=C2
output: false (0)

input: Test call, this molecule: N[C@H](CCC(=O)NCP(=O)(O)O)C(=O)O
output: false (0)

input: Test call, this molecule: COc1ccc(C(C)Nc2cc(OC)c(OC)c(OC)c2)cc1 (stereo not given)
output: false (0)

input: Test call, this molecule: CC(C)CCC1(CCN)C(=O)NC(=O)NC1=O
output: false (0)

input: Test call, this molecule: CCC(=O)OC1CCn2c1nc1c2C(=O)C(C)=C(NC(C)=O)C1=N (stereo not given)
output: false (0)

input: Test call, this molecule: O=C(O)Cc1cccc2c(=O)c3ccccc3oc12
output: false (0)

input: Test call, this molecule: Cn1c(=O)c2[nH]c(C3CC(=O)CC(c4nc5c([nH]4)c(=O)n(C)c(=O)n5C)N3)nc2n(C)c1=O (stereo not given)
output: false (0)

input: Test call, this molecule: CC1=CC(=O)N(n2c(Cc3ccccc3)n[nH]c2=O)C1=O
output: false (0)

input: Test call, this molecule: Nc1ncnc2c1ncn2C1OC(CO)C(O)C1NS(=O)(=O)c1ccccc1 (stereo not given)
output: false (0)

input: Test call, this molecule: COc1cc(/C=C2/C[C@H]3[C@@H]4CC=C5C[C@@H](OC(C)=O)CC[C@]5(C)[C@H]4CC[C@]3(C)NC2=O)cc(OC)c1OC
output: false (0)

input: Test call, this molecule: N#C[C@](CO)(NC(=O)OCc1ccccc1)C(F)F
output: false (0)

input: Test call, this molecule: CCC12CCCN(Cc3ccccc3)C1c1c(n(C)c3ccccc13)C(CO)C2 (stereo not given)
output: false (0)

input: Test call, this molecule: O=C(/C=C/C(=O)N1CCCC1)N1CCCC1
output: false (0)

input: Test call, this molecule: Cn1cc(NC(=O)Nc2cc(C(=O)Nc3cc(C(=O)Nc4cc(S(=O)(=O)O)c5cc(S(=O)(=O)O)cc(S(=O)(=O)O)c5c4)n(C)c3)n(C)c2)cc1C(=O)Nc1cc(C(=O)Nc2cc(S(=O)(=O)O)c3cc(S(=O)(=O)O)cc(S(=O)(=O)O)c3c2)n(C)c1
output: false (0)

input: Test call, this molecule: CC(C)(C)OC(=O)Cn1ncn(NC(=O)Cc2ccccc2)c1=S
output: false (0)

input: Test call, this molecule: CCOC(=O)N1CCC2(CC1)C[C@](Sc1ccccc1)(C(C)=O)[C@H](C)O2
output: false (0)

input: Test call, this molecule: COc1ccc(/C(=C\c2cc(OC)c(OC)c(OC)c2)C(=O)O)cc1
output: false (0)
